pIC50: −log10 of the molar value.
Target or system ALK tyrosine kinase receptor (Homo sapiens); metric pIC50; compiled from varied reports.

Smiles | Experimental system | pIC50
COc1cc(N2CCC(N3CCOCC3)CC2)ccc1Nc1nc(Nc2cc(F)c(F)cc2C(N)=O)c2cc[nH]c2n1 | ALK tyrosine kinase receptor (Homo sapiens) | 9.00 to 9.60
CCOc1nn(CCO)c2c1/C=C/c1n[nH]c3cc(F)c(cc13)-c1cnn(C)c1O[C@H](C)CN(CC)C2 | ALK tyrosine kinase receptor (Homo sapiens) | 8.01
O=C1CNc2ncc(I)cc2N1Cc1cc(F)c(F)cc1F | ALK tyrosine kinase receptor (Homo sapiens) | < 4.00
CC(=O)N1CCN(C(=O)c2ccc(-c3cnc4c(c3)N(Cc3cc(Cl)ccc3C(F)(F)F)CCN4)cc2)CC1 | ALK tyrosine kinase receptor (Homo sapiens) | > 7.00
Cc1cc(N2CCN(C(=O)c3cnc4c(c3)N(Cc3cc(Cl)ccc3Cl)CCN4)CC2)c2ccccc2n1 | ALK tyrosine kinase receptor (Homo sapiens) | 5.00 to 6.00
O=C(O)c1ccc(-c2cnc3c(c2)N(Cc2ccccc2)C(=O)CN3)cc1 | ALK tyrosine kinase receptor (Homo sapiens) | 4.00 to 5.00
CCCN1CCC=C(c2ccc(OC)c(Nc3nc(Nc4ccc(F)cc4C(N)=O)c4cc[nH]c4n3)c2)C1 | ALK tyrosine kinase receptor (Homo sapiens) | 9.00 to 9.60
CCOC(=O)c1ccc(-c2cnc3c(c2)N(C(=O)c2ccccc2)CCN3)cc1 | ALK tyrosine kinase receptor (Homo sapiens) | < 4.00

* * *

Target or system ALK tyrosine kinase receptor (Homo sapiens); metric pIC50; compiled from varied reports.
pIC50: −log10 of the molar value.
Quantity measured: pIC50

Molecule | Val
O=C(c1cnc2c(c1)N(Cc1cc(Cl)ccc1Cl)CCN2)N1CCN(CC2CCCCC2)CC1 | 4.00 to 5.00
O=C1c2cc3nc(-c4c(NC[C@@H](O)c5cccc(Cl)c5)cc[nH]c4=O)[nH]c3cc2C(=O)N1CCCO | < 4.82
CN1CCC(N2C(=O)c3cc4nc(-c5c(NCC(O)c6ccncc6)cc[nH]c5=O)[nH]c4cc3C2=O)CC1 (stereo not shown) | < 4.82
COc1ccc2c(c1)cc(C)n2C[C@H](O)CNc1ccnc(O)c1-c1nc2cc3c(cc2[nH]1)C(=O)N(C1CCN(C)CC1)C3=O | > 6.30
COc1cc(N2CCN(C(C)C)CC2)ccc1Nc1nc(Nc2cc(F)c(F)cc2C(N)=O)c2cc[nH]c2n1 | 9.00 to 9.60
CCCN1CCC=C(c2ccc(Nc3nc(Nc4ccccc4C(N)=O)c4cc[nH]c4n3)c(C)c2)C1 | 9.00 to 9.60
CC(c1cc(F)ccc1F)N1CCNc2ncc(-c3ccc(C(=O)N4CCC[C@H]4CN4CCCC4)cc3)cc21 (stereo partly shown) | > 7.00

* * *

Target or system ALK tyrosine kinase receptor (Homo sapiens, UniProt Q9UM73); metric pIC50; compiled from varied reports.
pIC50: −log10 of the molar value.

Molecule | Qualifier operator | pIC50
O=C(c1ccc(-c2cnc3c(c2)N(Cc2cc(Cl)ccc2Cl)CCN3)cc1)N1CCC[C@H]1CN1CCCC1 | > | 7.00
N#Cc1c(-c2ccc(O)cc2F)nc2[nH]ncc2c1-c1ccc(-c2ccc(S(N)(=O)=O)cc2)o1 | > | 7.00
CCN1Cc2c(c(OC)nn2[C@@H](C)CO)/C=C/c2n[nH]c3cc(F)c(cc23)-c2cnn(C)c2O[C@H](C)C1 | = | 7.81
CCN1Cc2c(c(OC(C)C)nn2[C@@H](C)CO)/C=C/c2n[nH]c3cc(F)c(cc23)-c2cnn(C)c2O[C@@H](C)C1 | = | 8.88
CC(C)Oc1nn(CCO)c2c1/C=C/c1n[nH]c3cc(F)c(cc13)-c1cnn(C)c1O[C@@H](C)CN(C)C2 | = | 8.98
CC1COc2ncc(F)cc2C2CCON2c2ccn3nc(C#N)c(c3n2)C(=O)N1 (stereo not drawn) | = | 6.87

* * *

pIC50: −log10 of the molar value.
Target or system ALK tyrosine kinase receptor (Homo sapiens, UniProt Q9UM73); metric pIC50; compiled from varied reports.

Compound | Experimental system | pIC50
O=C(c1ccc(-c2cnc3c(c2)N(Cc2cc(Cl)ccc2C(F)(F)F)CCN3)cc1)N1CCC(O)(c2ccc(Cl)cc2)CC1 | ALK tyrosine kinase receptor (Homo sapiens, UniProt Q9UM73) | 6.00 to 7.00
Cc1cc(Nc2ncc(Cl)c(Nc3ccccc3N(C)S(=O)(=O)C(C)C)n2)c(OC(C)C)cc1C1=CCN(C2CCOCC2)CC1 | ALK tyrosine kinase receptor (Homo sapiens, UniProt Q9UM73) | 9.05
CNC(=O)c1c(F)cc(Cl)cc1Nc1nc(Nc2cc3c(cc2OC)CCCN3C(=O)CN(C)C)nc2[nH]ccc12 | ALK tyrosine kinase receptor (Homo sapiens, UniProt Q9UM73) | 8.40 to 8.90
CCCN1CCCC(c2ccc(Nc3nc(Nc4cccc(OC)c4C(N)=O)c4cc[nH]c4n3)c(OC)c2)C1 (centres unmarked) | ALK tyrosine kinase receptor (Homo sapiens, UniProt Q9UM73) | 8.40 to 8.90
Cc1ccc(OC[C@H](O)CNc2cc[nH]c(=O)c2-c2nc3cc4c(c(C)c3[nH]2)CN(C2CCN(C)CC2)C4=O)c(C)c1 | ALK tyrosine kinase receptor (Homo sapiens, UniProt Q9UM73) | 5.30 to 6.30
O=C(c1cnc2c(c1)N(Cc1cc(Cl)ccc1Cl)CCN2)N1CCOCC1 | ALK tyrosine kinase receptor (Homo sapiens, UniProt Q9UM73) | 4.00 to 5.00
Cc1n[nH]c2nc(-c3ccc(O)cc3F)c(C#N)c(-c3ccc(N4CCNCC4)nc3)c12 | ALK tyrosine kinase receptor (Homo sapiens, UniProt Q9UM73) | 6.00 to 7.00
CNC(=O)c1ccccc1Nc1nc(Nc2ccc(N3CCN(C(C)C)CC3)cc2OC)nc2[nH]ccc12 | ALK tyrosine kinase receptor (Homo sapiens, UniProt Q9UM73) | 9.00 to 9.60
O=C1c2cc3nc(-c4c(NC[C@@H](O)c5cccc(Cl)c5)cc[nH]c4=O)[nH]c3cc2C(=O)N1CCc1c[nH]cn1 | ALK tyrosine kinase receptor (Homo sapiens, UniProt Q9UM73) | 5.30 to 6.30
CC(C)CCn1cc(-c2cnc3c(c2)N(Cc2c(F)ccc(F)c2Cl)CCN3)cn1 | ALK tyrosine kinase receptor (Homo sapiens, UniProt Q9UM73) | 6.00 to 7.00
Cc1nn(C)c2c1/C=C/c1n[nH]c3ccc(cc13)-c1cnn(C)c1OCCOC2 | ALK tyrosine kinase receptor (Homo sapiens, UniProt Q9UM73) | 7.56
Cc1cnc(Nc2ccc(C(=O)NCCN3CCOCC3)cc2)nc1Nc1ccc2cn[nH]c2c1 | ALK tyrosine kinase receptor (Homo sapiens, UniProt Q9UM73) | 7.02
COc1ccccc1CCNc1nc(Nc2ccc(N3CCN(C)CC3)cc2OC)ncc1Cl | ALK tyrosine kinase receptor (Homo sapiens, UniProt Q9UM73) | 8.70
COc1cc2c(cc1Nc1nc(Nc3cccc(F)c3C(N)=O)c3cc[nH]c3n1)CN(C(C)C)CC2 | ALK tyrosine kinase receptor (Homo sapiens, UniProt Q9UM73) | 8.40 to 8.90
Cc1ccc(F)c(OC[C@H](O)CNc2cc[nH]c(=O)c2-c2nc3cc4c(cc3[nH]2)C(=O)N(C2CCN(C)CC2)C4)c1Cl | ALK tyrosine kinase receptor (Homo sapiens, UniProt Q9UM73) | 4.82 to 5.30
Cc1c(C#N)c(-c2ccc(O)cc2)nc2[nH]nc(-c3ccc(N4CCNCC4)cc3)c12 | ALK tyrosine kinase receptor (Homo sapiens, UniProt Q9UM73) | 6.00 to 7.00
COc1cc2c(cc1Nc1nc(Nc3ccc(F)c(F)c3C(N)=O)c3cc[nH]c3n1)N(C(=O)CN(C)C)CC2 | ALK tyrosine kinase receptor (Homo sapiens, UniProt Q9UM73) | 8.40 to 8.90
Cc1ccc(NC(=O)CN(C)C)cc1Nc1nc(Nc2ccccc2C(=O)NO)c2cc[nH]c2n1 | ALK tyrosine kinase receptor (Homo sapiens, UniProt Q9UM73) | 9.00 to 9.60
Cc1cc(Nc2ncc(Cl)c(Nc3ccccc3N(C3CC3)S(C)(=O)=O)n2)c(OC(C)C)cc1C1=CCN(C2CCOCC2)CC1 | ALK tyrosine kinase receptor (Homo sapiens, UniProt Q9UM73) | 8.51
COc1ccc(OC[C@@H](O)CN(C)C)cc1Nc1nc(Nc2cc(F)ccc2C(N)=O)c2cc[nH]c2n1 | ALK tyrosine kinase receptor (Homo sapiens, UniProt Q9UM73) | 9.00 to 9.60
